Where these numbers come from: ChEMBL document CHEMBL3593206

target: Disintegrin and metalloproteinase domain-containing protein 17 (Homo sapiens); experiment: Inhibition of ADAM17 (unknown origin) preincubated for 30 mins followed by substrate addition measured every 30 mins for 2 hrs by fluorescence assay
Provide the reported IC50 of each item.
Kindly provide the numeric value in µM only, without the unit symbol.

IN: Would you mind telling me what IC50 value was observed for O=C1NC[C@H](Cc2ccccc2)N(C[C@@H]2CCCN2C[C@@H](CC2CCCCC2)N2C[C@H](Cc3ccc(O)cc3)N(CCc3ccccc3)C(=O)C2=O)C1=O ?
OUT: 5.4

IN: Now consider CCC[C@H]1CNC(=O)C(=O)N1C[C@@H]1CCCN1C[C@@H](CC1CCCCC1)N1C[C@H](Cc2ccccc2)N(CCc2ccccc2)C(=O)C1=O .
OUT: 4.3

IN: Now consider CCC[C@H]1CNC(=O)C(=O)N1C[C@@H]1CCCN1C[C@H](Cc1ccc(O)cc1)N1C[C@H](Cc2ccc(O)cc2)N(CC(CC)c2ccccc2)C(=O)C1=O (stereo partly specified) .
OUT: 15

IN: Now consider CCCC[C@H]1CN([C@@H](Cc2ccc(O)cc2)CN2CCC[C@H]2CN2C(=O)C(=O)NC[C@@H]2CCC)C(=O)C(=O)N1CCC12CC3CC(CC(C3)C1)C2 .
OUT: 6.5

IN: Now consider CCC[C@H]1CNC(=O)C(=O)N1C[C@@H]1CCCN1C[C@H](Cc1ccc(O)cc1)N1C[C@H](Cc2ccc(O)cc2)N(CC2CCCC2)C(=O)C1=O .
OUT: 35

IN: Now consider CCC[C@H]1CNC(=O)C(=O)N1C[C@@H]1CCCN1C[C@H](Cc1ccc(O)cc1)N1C[C@H](Cc2ccc(O)cc2)N(CC2CCC2)C(=O)C1=O .
OUT: 94

* * *

molecular target: Disintegrin and metalloproteinase domain-containing protein 17 (Homo sapiens, UniProt P78536); assay: Inhibition of ADAM17 in HTSMC assessed as inhibition of LPS-stimulated IL-8 shedding at 10 uM preincubated for 30 mins followed by LPS challenge measured after 4 to 24 hrs by ELISA
Sequence (P78536 whole entry, the tested form may be a part): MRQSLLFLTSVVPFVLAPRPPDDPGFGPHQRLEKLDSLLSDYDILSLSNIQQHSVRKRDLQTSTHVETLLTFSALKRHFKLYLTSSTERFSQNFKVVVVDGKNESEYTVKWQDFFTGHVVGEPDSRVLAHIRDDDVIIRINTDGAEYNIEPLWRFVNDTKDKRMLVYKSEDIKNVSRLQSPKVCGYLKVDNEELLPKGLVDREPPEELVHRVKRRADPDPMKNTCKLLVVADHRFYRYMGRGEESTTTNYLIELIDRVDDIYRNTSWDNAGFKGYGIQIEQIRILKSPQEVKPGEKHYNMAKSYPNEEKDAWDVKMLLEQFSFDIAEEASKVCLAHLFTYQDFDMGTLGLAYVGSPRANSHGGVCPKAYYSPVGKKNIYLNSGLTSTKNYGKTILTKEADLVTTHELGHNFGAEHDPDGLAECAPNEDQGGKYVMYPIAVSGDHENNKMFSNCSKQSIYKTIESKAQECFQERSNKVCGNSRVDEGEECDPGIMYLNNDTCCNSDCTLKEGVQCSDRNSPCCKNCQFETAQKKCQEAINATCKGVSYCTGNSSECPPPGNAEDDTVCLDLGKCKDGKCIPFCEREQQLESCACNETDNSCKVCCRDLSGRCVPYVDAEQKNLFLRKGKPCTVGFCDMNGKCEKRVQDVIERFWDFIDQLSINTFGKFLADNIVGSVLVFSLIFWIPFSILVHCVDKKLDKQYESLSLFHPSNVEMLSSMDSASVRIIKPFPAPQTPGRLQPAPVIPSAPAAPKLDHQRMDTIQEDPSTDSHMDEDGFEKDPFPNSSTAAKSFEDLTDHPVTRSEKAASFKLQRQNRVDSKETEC
Provide the reported inhibition of each item.
Kindly provide the numeric value in % only, without the unit symbol.

IN: Would you mind telling me what inhibition value was observed for O=C1NC[C@H](Cc2ccccc2)N(C[C@@H]2CCCN2C[C@@H](CC2CCCCC2)N2C[C@H](Cc3ccc(O)cc3)N(CCc3ccccc3)C(=O)C2=O)C1=O ?
OUT: 18

IN: Now consider O=C1NC[C@@H](Cc2ccc(O)cc2)N(C[C@@H]2CCCN2C[C@@H](Cc2ccc3ccccc3c2)N2CC(Cc3ccc(O)cc3)N(CCC34CC5CC(CC(C5)C3)C4)C(=O)C2=O)C1=O (single isomer, unassigned) .
OUT: 36

IN: Now consider O=C1NC[C@H](Cc2ccccc2)N(C[C@@H]2CCCN2C[C@H](Cc2ccccc2)N2C[C@H](Cc3ccc(O)cc3)N(CCC34CC5CC(CC(C5)C3)C4)C(=O)C2=O)C1=O .
OUT: 62

IN: Now consider CCCC[C@H]1CN([C@@H](Cc2ccc(O)cc2)CN2CCC[C@H]2CN2C(=O)C(=O)NC[C@H]2Cc2ccc3ccccc3c2)C(=O)C(=O)N1CCC12CC3CC(CC(C3)C1)C2 .
OUT: 62

* * *

biological target: Disintegrin and metalloproteinase domain-containing protein 17 (Homo sapiens); assay: Inhibition of ADAM17 (unknown origin) at 100 uM preincubated for 30 mins followed by substrate addition measured every 30 mins for 2 hrs by fluorescence assay relative to control
recorded metric: inhibition (%)
Kindly provide the numeric value in % only, without the unit symbol.

IN: Quick check: inhibition on Disintegrin and metalloproteinase domain-containing protein 17 (Homo sapiens), item O=C1NCC(Cc2ccccc2)N(C[C@@H]2CCCN2C[C@@H](CC2CCCCC2)N2C[C@H](Cc3ccccc3)N(CCc3ccccc3)C(=O)C2=O)C1=O (single isomer, unassigned) ?
OUT: 100

IN: Now consider O=C1NC[C@@H](Cc2ccc(O)cc2)N(C[C@@H]2CCCN2C[C@@H](Cc2ccc3ccccc3c2)N2CC(Cc3ccc(O)cc3)N(CCC34CC5CC(CC(C5)C3)C4)C(=O)C2=O)C1=O (single isomer, unassigned) .
OUT: 95

IN: Now consider O=C1NC[C@H](Cc2ccccc2)N(C[C@@H]2CCCN2C[C@H](Cc2ccccc2)N2C[C@H](Cc3ccc(O)cc3)N(CCC34CC5CC(CC(C5)C3)C4)C(=O)C2=O)C1=O .
OUT: 100

IN: Now consider CCCC[C@H]1CN([C@@H](Cc2ccc(O)cc2)CN2CCC[C@H]2CN2C(=O)C(=O)NC[C@H]2Cc2ccc3ccccc3c2)C(=O)C(=O)N1CCC12CC3CC(CC(C3)C1)C2 .
OUT: 100

IN: Now consider CCC[C@H]1CNC(=O)C(=O)N1C[C@@H]1CCCN1C[C@@H](CC1CCCCC1)N1C[C@H](Cc2ccccc2)N(CCc2ccccc2)C(=O)C1=O .
OUT: 100

IN: Now consider O=C1NC[C@H](Cc2ccccc2)N(C[C@@H]2CCCN2C[C@@H](CC2CCCCC2)N2C[C@H](Cc3ccc(O)cc3)N(CCc3ccccc3)C(=O)C2=O)C1=O .
OUT: 100

* * *

biological target: Matrix metalloproteinase-9 (Homo sapiens)
recorded metric: IC50

IN: Would you mind telling me what IC50 value was observed for CCC[C@H]1CNC(=O)C(=O)N1C[C@@H]1CCCN1C[C@@H](CC1CCCCC1)N1C[C@H](Cc2ccccc2)N(CCc2ccccc2)C(=O)C1=O ?
OUT: > 100 µM

* * *

biological target: Matrix metalloproteinase-9 (Homo sapiens, UniProt P14780); experiment: Inhibition of MMP9 (unknown origin) using Mca-KLPGL-Dnp-AR as substrate at 100 uM preincubated for 30 mins followed by substrate addition measured after 1 hr by fluorescence assay relative to control
Sequence (P14780 whole entry): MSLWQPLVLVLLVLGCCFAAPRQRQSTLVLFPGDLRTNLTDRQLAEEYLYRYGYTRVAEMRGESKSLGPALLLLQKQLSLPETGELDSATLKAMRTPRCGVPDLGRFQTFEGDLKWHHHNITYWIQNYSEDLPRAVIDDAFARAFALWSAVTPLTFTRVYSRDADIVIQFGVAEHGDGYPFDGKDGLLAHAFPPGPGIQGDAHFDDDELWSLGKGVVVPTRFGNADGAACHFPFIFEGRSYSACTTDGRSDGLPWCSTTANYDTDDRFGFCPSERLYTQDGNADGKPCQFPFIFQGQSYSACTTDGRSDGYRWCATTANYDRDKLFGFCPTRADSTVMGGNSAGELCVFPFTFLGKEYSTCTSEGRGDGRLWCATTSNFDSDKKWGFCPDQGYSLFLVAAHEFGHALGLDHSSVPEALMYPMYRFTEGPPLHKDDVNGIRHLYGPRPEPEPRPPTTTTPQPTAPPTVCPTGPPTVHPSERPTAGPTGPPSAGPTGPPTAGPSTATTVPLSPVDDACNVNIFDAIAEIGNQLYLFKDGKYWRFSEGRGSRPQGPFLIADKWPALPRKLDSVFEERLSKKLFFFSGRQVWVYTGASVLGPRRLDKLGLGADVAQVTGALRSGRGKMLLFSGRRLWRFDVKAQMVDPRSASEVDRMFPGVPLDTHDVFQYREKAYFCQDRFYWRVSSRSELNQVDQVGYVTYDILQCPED
recorded metric: inhibition (%)
Kindly provide the numeric value in % only, without the unit symbol.

IN: Would you mind telling me what inhibition value was observed for O=C1NC[C@H](Cc2ccccc2)N(C[C@@H]2CCCN2C[C@H](Cc2ccccc2)N2C[C@H](Cc3ccc(O)cc3)N(CCC34CC5CC(CC(C5)C3)C4)C(=O)C2=O)C1=O ?
OUT: 0

IN: Now consider CCC[C@H]1CNC(=O)C(=O)N1C[C@@H]1CCCN1C[C@@H](CC1CCCCC1)N1C[C@H](Cc2ccccc2)N(CCc2ccccc2)C(=O)C1=O .
OUT: 0

IN: Now consider O=C1NC[C@H](Cc2ccccc2)N(C[C@@H]2CCCN2C[C@@H](CC2CCCCC2)N2C[C@H](Cc3ccc(O)cc3)N(CCc3ccccc3)C(=O)C2=O)C1=O .
OUT: 13

IN: Now consider CCCC[C@H]1CN([C@@H](Cc2ccc(O)cc2)CN2CCC[C@H]2CN2C(=O)C(=O)NC[C@H]2Cc2ccc3ccccc3c2)C(=O)C(=O)N1CCC12CC3CC(CC(C3)C1)C2 .
OUT: 0

IN: Now consider O=C1NCC(Cc2ccccc2)N(C[C@@H]2CCCN2C[C@@H](CC2CCCCC2)N2C[C@H](Cc3ccccc3)N(CCc3ccccc3)C(=O)C2=O)C1=O (single isomer, unassigned) .
OUT: 0

* * *

Provide the reported IC50 of each item.
biological target: Neutrophil collagenase (Homo sapiens, UniProt P22894); test: Inhibition of MMP8 (unknown origin) using Mca-KLPGL-Dnp-AR as substrate preincubated for 30 mins followed by substrate addition measured after 1 hr by fluorescence assay
Sequence (P22894 whole entry): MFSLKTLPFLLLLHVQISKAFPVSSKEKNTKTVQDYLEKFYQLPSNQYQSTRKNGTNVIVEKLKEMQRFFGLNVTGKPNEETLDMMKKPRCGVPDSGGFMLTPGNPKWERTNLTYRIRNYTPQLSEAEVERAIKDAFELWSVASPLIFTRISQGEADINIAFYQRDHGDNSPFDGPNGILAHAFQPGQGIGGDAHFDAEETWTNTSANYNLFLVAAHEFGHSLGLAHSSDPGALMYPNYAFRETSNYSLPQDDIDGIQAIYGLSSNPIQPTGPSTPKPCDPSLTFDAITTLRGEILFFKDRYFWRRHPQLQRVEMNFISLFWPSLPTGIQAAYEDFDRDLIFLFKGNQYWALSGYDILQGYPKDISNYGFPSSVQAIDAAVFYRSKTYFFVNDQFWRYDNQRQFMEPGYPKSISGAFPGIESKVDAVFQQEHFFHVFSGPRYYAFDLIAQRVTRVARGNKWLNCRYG

IN: Quick check: IC50 on Neutrophil collagenase (Homo sapiens, UniProt P22894), item O=C1NC[C@H](Cc2ccccc2)N(C[C@@H]2CCCN2C[C@@H](CC2CCCCC2)N2C[C@H](Cc3ccc(O)cc3)N(CCc3ccccc3)C(=O)C2=O)C1=O ?
OUT: > 100 µM

IN: Now consider CCCC[C@H]1CN([C@@H](Cc2ccc(O)cc2)CN2CCC[C@H]2CN2C(=O)C(=O)NC[C@H]2Cc2ccc3ccccc3c2)C(=O)C(=O)N1CCC12CC3CC(CC(C3)C1)C2 .
OUT: > 100 µM

IN: Now consider O=C1NC[C@H](Cc2ccccc2)N(C[C@@H]2CCCN2C[C@H](Cc2ccccc2)N2C[C@H](Cc3ccc(O)cc3)N(CCC34CC5CC(CC(C5)C3)C4)C(=O)C2=O)C1=O .
OUT: > 100 µM

IN: Now consider CCC[C@H]1CNC(=O)C(=O)N1C[C@@H]1CCCN1C[C@@H](CC1CCCCC1)N1C[C@H](Cc2ccccc2)N(CCc2ccccc2)C(=O)C1=O .
OUT: > 100 µM

IN: Now consider O=C1NC[C@@H](Cc2ccc(O)cc2)N(C[C@@H]2CCCN2C[C@@H](Cc2ccc3ccccc3c2)N2CC(Cc3ccc(O)cc3)N(CCC34CC5CC(CC(C5)C3)C4)C(=O)C2=O)C1=O (single isomer, unassigned) .
OUT: > 100 µM

* * *

biological target: Disintegrin and metalloproteinase domain-containing protein 17 (Homo sapiens); assay: Inhibition of ADAM17 in human HT1080 cells assessed as inhibition of PMA-stimulated PTK7 L622D mutant shedding at 25 to 100 uM after 16 hrs by Western blot analysis; assay type: cell-based; settings: HT-1080
Provide the reported inhibition of each item.
Kindly provide the numeric value in % only, without the unit symbol.

IN: Would you mind telling me what inhibition value was observed for CCCC[C@H]1CN([C@@H](Cc2ccc(O)cc2)CN2CCC[C@H]2CN2C(=O)C(=O)NC[C@H]2Cc2ccc3ccccc3c2)C(=O)C(=O)N1CCC12CC3CC(CC(C3)C1)C2 ?
OUT: 0

IN: Now consider O=C1NC[C@H](Cc2ccccc2)N(C[C@@H]2CCCN2C[C@@H](CC2CCCCC2)N2C[C@H](Cc3ccc(O)cc3)N(CCc3ccccc3)C(=O)C2=O)C1=O .
OUT: 0

IN: Now consider O=C1NC[C@@H](Cc2ccc(O)cc2)N(C[C@@H]2CCCN2C[C@@H](Cc2ccc3ccccc3c2)N2CC(Cc3ccc(O)cc3)N(CCC34CC5CC(CC(C5)C3)C4)C(=O)C2=O)C1=O (single isomer, unassigned) .
OUT: 25

IN: Now consider CCC[C@H]1CNC(=O)C(=O)N1C[C@@H]1CCCN1C[C@@H](CC1CCCCC1)N1C[C@H](Cc2ccccc2)N(CCc2ccccc2)C(=O)C1=O .
OUT: 0
